// reported GI50 per item
Tested on: SK-MEL-2 melanoma
ASSAY_INFO: NCI tumour cell line growth inhibition, 48 h
OBSERVATION_TYPE: GI50

Cn1c2ccccc2c2c3c(c4c5cc(Br)ccc5n(C)c4c21)C(=O)N(O)C3=O :: > 48.2 µM
CCOC(=O)CCCn1c(SC)nc2[nH]cc(-c3ccccc3)c2c1=O :: 21.6 µM
Clc1nc2ccccc2nc1CI :: 5.43 µM
O=C(Nc1nc2ccc(C(F)(F)F)cc2s1)c1cc(Cl)ccc1O :: 0.798 µM
CCCCCCCCCCCCCC1=NC(C)(C)CN1C(C)C :: 1.88 µM
O=C(CNc1ccc(Cl)cc1)Nc1ccc(-c2nc3ccccc3s2)cc1 :: 8.96 µM
